Documented pIC50 across a set of molecules
Molecular target: NLRP3 inflammasome (Homo sapiens)
Sequence (Q96P20 whole entry): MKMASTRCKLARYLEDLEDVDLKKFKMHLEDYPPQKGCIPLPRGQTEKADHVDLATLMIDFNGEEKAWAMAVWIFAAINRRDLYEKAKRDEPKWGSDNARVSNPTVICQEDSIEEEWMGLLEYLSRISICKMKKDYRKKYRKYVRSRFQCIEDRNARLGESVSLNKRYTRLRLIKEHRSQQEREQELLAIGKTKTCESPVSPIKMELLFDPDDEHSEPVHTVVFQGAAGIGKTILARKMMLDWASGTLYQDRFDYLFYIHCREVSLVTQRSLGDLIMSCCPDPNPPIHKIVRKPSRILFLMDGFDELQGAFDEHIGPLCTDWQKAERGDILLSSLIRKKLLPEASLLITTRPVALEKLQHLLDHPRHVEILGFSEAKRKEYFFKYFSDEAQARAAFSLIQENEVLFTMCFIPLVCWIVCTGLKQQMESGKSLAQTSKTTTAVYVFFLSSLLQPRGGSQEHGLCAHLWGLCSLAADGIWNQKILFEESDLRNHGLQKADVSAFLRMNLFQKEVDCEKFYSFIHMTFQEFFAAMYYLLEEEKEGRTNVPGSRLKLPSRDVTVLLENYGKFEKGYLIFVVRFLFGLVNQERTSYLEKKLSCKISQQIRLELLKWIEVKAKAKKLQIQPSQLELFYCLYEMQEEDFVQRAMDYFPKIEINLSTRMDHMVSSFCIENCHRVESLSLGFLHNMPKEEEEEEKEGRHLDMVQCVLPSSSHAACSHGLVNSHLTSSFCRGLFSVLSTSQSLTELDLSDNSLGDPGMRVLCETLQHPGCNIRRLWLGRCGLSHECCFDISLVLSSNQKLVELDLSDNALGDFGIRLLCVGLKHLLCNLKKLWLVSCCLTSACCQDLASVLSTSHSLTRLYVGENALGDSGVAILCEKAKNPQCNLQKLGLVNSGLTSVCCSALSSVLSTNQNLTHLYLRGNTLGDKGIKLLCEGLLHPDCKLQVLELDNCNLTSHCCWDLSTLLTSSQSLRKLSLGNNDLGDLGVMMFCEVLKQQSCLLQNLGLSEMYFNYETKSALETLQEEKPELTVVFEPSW
Test: NLRP3 inflammasome activation in THP1 macrophages, IL-1β AlphaLISA
pIC50: −log10 of the molar value.

Sample answers from the record:
COC(C)(C)CNc1cc(C)c(-c2ccccc2O)nn1 [compound 124]	< 6.00
Cc1cc(-c2ccc(F)cc2O)nnc1O[C@@H]1CCCN(C)C1 [compound 35]	7.00 to 8.00
Cc1cc(N(C)[C@@H]2CCN(C)C2)nnc1-c1ccc(C(F)(F)F)cc1O [compound 97]	7.00 to 8.00
Cc1cc(N[C@@H]2CCCN(C)C2)nnc1-c1ncc(C(F)(F)F)cc1O [compound 107]	> 9.00

In the following, a different molecule is considered.
What does the data say about its pIC50? Entry: Cc1cc(N[C@@H]2CCCN(C)C2)nnc1-c1ncccc1O [compound 108]
6.30 to 7.00
